Reported MIC for target or system Micrococcus luteus DSM 1790, by entry.
Field: numeric (µg/mL). Do not append units.

Q: Field request: MIC | item: COc1c(NC(=O)c2ccc(NC(=O)c3ccc(NC(=O)[C@H](Cc4c[nH]nn4)NC(=O)c4ccc(NC(=O)c5ccc(C#N)cc5)cc4)cn3)c(OC)c2O)ccc(C(=O)O)c1O
A: 0.125

Q: Follow-up item: COc1c(NC(=O)c2ccc(NC(=O)c3ccc(NC(=O)[C@H](Cc4c[nH]nn4)NC(=O)c4ccc(NC(=O)c5ccc6cc(O)ccc6c5)cc4)cn3)c(OC)c2O)ccc(C(=O)O)c1O
A: 0.031

Q: Now the compound CCn1cc(C(=O)Nc2ccc(C(=O)N[C@@H](Cc3c[nH]nn3)C(=O)Nc3ccc(C(=O)Nc4ccc(C(=O)Nc5ccc(C(=O)O)c(O)c5OC)c(O)c4OC)nc3)cc2)c(=O)c2cc3c(cc21)OCO3
A: 0.016

###

test system: E. coli DSM1116; assay: MIC determination (broth microdilution); assay type: cell-based; settings: Escherichia coli, DSM1116; read-out: MIC E. coli DSM1116
reported metric: MIC

Q: Quick check: MIC on E. coli DSM1116, item COc1c(NC(=O)c2ccc(NC(=O)c3ccc(NC(=O)[C@H](Cc4c[nH]nn4)NC(=O)c4ccc(NC(=O)c5ccc(C#N)cc5)cc4)cn3)c(OC)c2O)ccc(C(=O)O)c1O ?
A: 0.031 mg/L

Q: Now the compound CCn1cc(C(=O)Nc2ccc(C(=O)N[C@@H](Cc3c[nH]nn3)C(=O)Nc3ccc(C(=O)Nc4ccc(C(=O)Nc5ccc(C(=O)O)c(O)c5OC)c(O)c4OC)nc3)cc2)c(=O)c2ccc(C)nc21
A: 0.031 mg/L

Q: How about this compound: COc1c(NC(=O)c2ccc(NC(=O)c3ccc(NC(=O)[C@H](Cc4c[nH]nn4)NC(=O)c4ccc(NC(=O)c5ccc(C(F)(F)F)cc5)cc4)cn3)c(OC)c2O)ccc(C(=O)O)c1O
A: 0.016 mg/L

Q: Another compound to look at: COc1c(NC(=O)c2ccc(NC(=O)c3ccc(NC(=O)[C@H](Cc4c[nH]nn4)NC(=O)c4ccc(NC(=O)c5ccc6nn[nH]c6c5)cc4)cn3)c(OC)c2O)ccc(C(=O)O)c1O
A: 0.125 mg/L

Q: And then COc1c(NC(=O)c2ccc(NC(=O)c3ccc(NC(=O)[C@H](Cc4c[nH]nn4)NC(=O)c4ccc(NC(=O)c5ccc(F)cn5)cc4)cn3)c(OC)c2O)ccc(C(=O)O)c1O , what is it?
A: 0.031 mg/L

Q: What about COc1ccc(C(=O)Nc2ccc(C(=O)N[C@@H](Cc3c[nH]nn3)C(=O)Nc3ccc(C(=O)Nc4ccc(C(=O)Nc5ccc(C(=O)O)c(O)c5OC)c(O)c4OC)nc3)cc2)nc1 ?
A: 0.031 mg/L

Q: Okay, and CCn1cc(C(=O)Nc2ccc(C(=O)N[C@@H](Cc3c[nH]nn3)C(=O)Nc3ccc(C(=O)Nc4ccc(C(=O)Nc5ccc(C(=O)O)c(O)c5OC)c(O)c4OC)nc3)cc2)c(=O)c2cc3c(cc21)OCO3 ?
A: 0.016 mg/L

Q: // next record COc1c(NC(=O)c2ccc(NC(=O)c3ccc(NC(=O)[C@H](Cc4c[nH]nn4)NC(=O)c4ccc(NC(=O)c5ccc6nccnc6c5)cc4)cn3)c(OC)c2O)ccc(C(=O)O)c1O
A: 0.031 mg/L

Q: Same thing, different compound: COc1c(NC(=O)c2ccc(NC(=O)c3ccc(NC(=O)[C@H](Cc4c[nH]nn4)NC(=O)c4ccc(NC(=O)c5cc6cc(O)ccc6[nH]5)cc4)cn3)c(OC)c2O)ccc(C(=O)O)c1O
A: 0.063 mg/L

Q: Please give the result for COc1c(NC(=O)c2ccc(NC(=O)c3ccc(NC(=O)[C@H](Cc4c[nH]nn4)NC(=O)c4ccc(NC(=O)c5ccc6ncccc6c5)cc4)cn3)c(OC)c2O)ccc(C(=O)O)c1O too.
A: 0.016 mg/L

Q: Likewise for COc1c(NC(=O)c2ccc(NC(=O)c3ccc(NC(=O)[C@H](Cc4c[nH]nn4)NC(=O)c4ccc(NC(=O)[C@@H](C)Oc5ccc(O)cc5)cc4)cn3)c(OC)c2O)ccc(C(=O)O)c1O ?
A: 0.063 mg/L

Q: Same lookup for COc1c(NC(=O)c2ccc(NC(=O)c3ccc(NC(=O)[C@H](Cc4c[nH]nn4)NC(=O)c4ccc(NC(=O)c5cc(=O)c6cc(F)ccc6o5)cc4)cn3)c(OC)c2O)ccc(C(=O)O)c1O , please.
A: ≤ 0.016 mg/L

Q: And the next one, COc1c(NC(=O)c2ccc(NC(=O)c3ccc(NC(=O)[C@H](Cc4c[nH]nn4)NC(=O)c4ccc(NC(=O)c5ccc6ncsc6c5)cc4)cn3)c(OC)c2O)ccc(C(=O)O)c1O ?
A: ≤ 0.016 mg/L

Q: # repeat for COc1c(NC(=O)c2ccc(NC(=O)c3ccc(NC(=O)[C@H](Cc4c[nH]nn4)NC(=O)c4ccc(NC(=O)c5ccc6cc(O)ccc6c5)cc4)cn3)c(OC)c2O)ccc(C(=O)O)c1O
A: 0.016 mg/L

Q: Follow-up item: COc1c(NC(=O)c2ccc(NC(=O)c3ccc(NC(=O)[C@H](Cc4c[nH]nn4)NC(=O)c4ccc(NC(=O)c5ccc6ccccc6n5)cc4)cn3)c(OC)c2O)ccc(C(=O)O)c1O
A: ≤ 0.016 mg/L

Q: Also, COc1c(NC(=O)c2ccc(NC(=O)c3ccc(NC(=O)[C@H](Cc4c[nH]nn4)NC(=O)c4ccc(NC(=O)c5ccc([N+](=O)[O-])cn5)cc4)cn3)c(OC)c2O)ccc(C(=O)O)c1O please.
A: 0.063 mg/L

Q: Next entry: COc1c(NC(=O)c2ccc(NC(=O)c3ccc(NC(=O)[C@H](Cc4cn[nH]n4)NC(=O)c4ccc(NC(=O)/C(C)=C/c5ccc(O)cc5)cc4)cn3)c(OC)c2O)ccc(C(=O)O)c1O [compound 3, reference compound]
A: 0.016 mg/L

Q: Now the compound COc1c(NC(=O)c2ccc(NC(=O)c3ccc(NC(=O)[C@H](Cc4c[nH]nn4)NC(=O)c4ccc(NC(=O)c5cnc6ccccc6c5)cc4)cn3)c(OC)c2O)ccc(C(=O)O)c1O
A: 0.031 mg/L

Q: Can you check COc1c(NC(=O)c2ccc(NC(=O)c3ccc(NC(=O)[C@H](Cc4c[nH]nn4)NC(=O)c4ccc(NC(=O)c5c[nH]c6ccccc6c5=O)cc4)cn3)c(OC)c2O)ccc(C(=O)O)c1O next?
A: 0.031 mg/L

###

assay: Reverse-phase HPLC retention time as estimate of lipophilicity; type: physicochemical; conditions: indicator of lipophilicity
Hi there, I'd appreciate the recorded Rt (retention time) for every entry that follows.
// note: answer is a bare numeric in min

Q: What does the record list as Rt (retention time) for COc1c(NC(=O)c2ccc(NC(=O)c3ccc(NC(=O)[C@H](Cc4c[nH]nn4)NC(=O)c4ccc(NC(=O)c5cnc6ccccc6c5)cc4)cn3)c(OC)c2O)ccc(C(=O)O)c1O [compound 13] ?
A: 8.07

Q: Moving on to COc1c(NC(=O)c2ccc(NC(=O)c3ccc(NC(=O)[C@H](Cc4c[nH]nn4)NC(=O)c4ccc(NC(=O)c5ccc6ncsc6c5)cc4)cn3)c(OC)c2O)ccc(C(=O)O)c1O [compound 22]
A: 7.65

Q: Could you do the same for COc1c(NC(=O)c2ccc(NC(=O)c3ccc(NC(=O)[C@H](Cc4c[nH]nn4)NC(=O)c4ccc(NC(=O)[C@@H](C)Oc5ccc(O)cc5)cc4)cn3)c(OC)c2O)ccc(C(=O)O)c1O [compound 9] , please?
A: 7.78

###

Test system: E. coli BW25113
Assay: MIC determination (broth microdilution)
Type: cell-based
Conditions: Escherichia coli, BW25113; read-out: MIC E. coli BW25113
Description: After completing the syntheses, the antibacterial activity of A‐variations 4–24 was assessed by determination of MIC values against a basic set of gram‐negative and gram‐positive bacteria (Table 1). […] Minimal inhibitory concentration (MIC) against selected bacterial strains values were determined according to the ninth edition of the Approved Standard M07-A9.[1] […] Both microdilution trays and agar plates were incubated at 30−37°C for 16 h and subsequently analyzed for growth inhibition by naked eye. […]
What MIC was measured for each of the following?
Numbers only; they are read as µg/mL.

Q: Suppose we examine the compound COc1c(NC(=O)c2ccc(NC(=O)c3ccc(NC(=O)[C@H](Cc4c[nH]nn4)NC(=O)c4ccc(NC(=O)c5ccc(F)cn5)cc4)cn3)c(OC)c2O)ccc(C(=O)O)c1O [compound 7] ; what MIC value has been reported?
A: 0.031

Q: Proceed to COc1c(NC(=O)c2ccc(NC(=O)c3ccc(NC(=O)[C@H](Cc4c[nH]nn4)NC(=O)c4ccc(NC(=O)c5c[nH]c6ccccc6c5=O)cc4)cn3)c(OC)c2O)ccc(C(=O)O)c1O [compound 17]
A: 0.063

Q: Then this compound: COc1c(NC(=O)c2ccc(NC(=O)c3ccc(NC(=O)[C@H](Cc4c[nH]nn4)NC(=O)c4ccc(NC(=O)[C@@H](C)Oc5ccc(O)cc5)cc4)cn3)c(OC)c2O)ccc(C(=O)O)c1O [compound 9]
A: 0.063
